target-or-test-system: Fructose-1,6-bisphosphatase 1 (Mus musculus, UniProt Q9QXD6)
Sequence (Q9QXD6 whole entry): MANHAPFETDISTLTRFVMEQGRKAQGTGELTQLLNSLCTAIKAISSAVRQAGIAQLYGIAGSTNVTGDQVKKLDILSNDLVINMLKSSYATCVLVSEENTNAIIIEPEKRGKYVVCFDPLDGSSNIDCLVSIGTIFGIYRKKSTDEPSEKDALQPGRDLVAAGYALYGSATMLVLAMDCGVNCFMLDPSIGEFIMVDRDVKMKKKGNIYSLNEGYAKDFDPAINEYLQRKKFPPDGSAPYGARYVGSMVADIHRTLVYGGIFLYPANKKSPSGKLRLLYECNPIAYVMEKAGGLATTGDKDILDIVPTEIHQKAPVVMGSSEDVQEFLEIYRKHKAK
protocol-notes: Inhibition of FBPase in mouse liver
pEC50: −log10 of the molar value.
property-name: pEC50

// solved cases for pEC50 follow
COCCc1sc(S(=O)(=O)NC(=O)Nc2ncc(SC)s2)cc1C ... 5.19
Cc1cc(S(=O)(=O)NC(=O)Nc2nc(C)c(C(F)(F)F)s2)sc1CCO ... 5.00
O=C(Nc1ncc(Br)s1)NS(=O)(=O)c1cccc(Cl)c1 ... 4.31
COc1cc(C)c(-c2sc(S(=O)(=O)NC(=O)Nc3ncc(Br)s3)cc2C)cn1 ... 5.05

[I] COCCCc1sc(S(=O)(=O)NC(=O)Nc2ncc(Br)s2)cc1C
[II] Cc1ccc(S(=O)(=O)NC(=O)Nc2ncc(Br)s2)cc1
[III] Cc1cc(C)cc(S(=O)(=O)NC(=O)Nc2ncc(Br)s2)c1
[IV] COc1ccc(-c2sc(S(=O)(=O)NC(=O)Nc3ncc(Br)s3)cc2C)cn1
[V] COCCc1sc(S(=O)(=O)NC(=O)Nc2ncc(Br)s2)cc1C
input: Place the items in sequence of falling pEC50. # format: label list in the order the request specifies
output: I, V, III, IV, II
(I: 5.49, V: 5.26, III: 4.72, IV: 4.47, II: 3.93)

[I] CSc1sc(NC(=O)NS(=O)(=O)c2cc(C)c(CCO)s2)nc1C
[II] CCc1sc(NC(=O)NS(=O)(=O)c2cc(C)c(CCO)s2)nc1C
[III] O=C(Nc1ncc(Br)s1)NS(=O)(=O)c1ccc(Cl)s1
[IV] O=C(Nc1ncc(Br)s1)NS(=O)(=O)c1cccc(OC(F)F)c1
input: List by increasing pEC50. # format: label list in the order the request specifies
output: III, IV, II, I

[a] Cn1cc(S(=O)(=O)NC(=O)Nc2ncc(Br)s2)c2cccc(OCCO)c21
[b] COc1sc(S(=O)(=O)NC(=O)Nc2ncc(Br)s2)cc1C
input: Of a and b , which carries the smaller reported pEC50 figure? Reply with the label of the item you choose.
output: b

Hello, the source for this data is ChEMBL document CHEMBL1153201, in case you need it.
